Cited source for all entries: ChEMBL document CHEMBL1201862

tested on: EKVX; test: NCI tumour cell line growth inhibition, 48 h
Activity calls are given as the source filed them. Cut-off read from the data, not from the text of the source: active = GI50 up to about 1.1 µM and inactive = higher.
Return exactly one item of true = active, false = inactive

# lookup: test call for `CCNC(=O)C#CC(=O)NCC`
false

What would you report for O=c1n(CC2CO2)c(=O)n(CC2CO2)c(=O)n1CC1CO1 (stereo unspecified) ?
false

What would you report for `Cn1c2c([N+](=O)[O-])[se]nc2c(=O)n1-c1ccc([N+](=O)[O-])cc1` ?
false

What would you report for c1c2c(cc3c1OCO3)-c1cc3ccc4c(c3c[n+]1CC2)OCO4 [COPTISINE CHLORIDE] ?
false

What would you report for `C/C(=C/C(=O)N(C)c1ccccc1Cl)O[Si](C(C)C)(C(C)C)C(C)C` ?
false

What would you report for CCOC1CN=C(Nc2cccc3ccccc23)S1 (stereo unspecified) ?
false

What would you report for `CCCCCCNC(=O)CCN(C(=O)O)S(=O)(=O)c1ccc(NC(=O)c2ccccc2)cc1` ?
false

What would you report for `CN(C)S(=O)(=O)n1cnc(CO)c1` ?
false

What would you report for `Cc1ccc(C)c(NC(=O)c2cc(-c3ccc([N+](=O)[O-])cc3)nc(N)n2)c1` ?
false

What would you report for `COc1cc2c3c(n(C)c(=O)c2cc1OC)-c1cc2c(cc1/C3=C\CCCI)OCO2` ?
false

What would you report for `Oc1cc(-c2cccc3ccccc23)nc2ncccc12` ?
true
